target: μ-opioid receptors (MOP receptors) (Mus musculus, UniProt P42866); construct: expressed in transfected cells; host or cells: HEK293; type: cell-based; conditions: Conc 10^−5 M
Sequence (P42866 whole entry): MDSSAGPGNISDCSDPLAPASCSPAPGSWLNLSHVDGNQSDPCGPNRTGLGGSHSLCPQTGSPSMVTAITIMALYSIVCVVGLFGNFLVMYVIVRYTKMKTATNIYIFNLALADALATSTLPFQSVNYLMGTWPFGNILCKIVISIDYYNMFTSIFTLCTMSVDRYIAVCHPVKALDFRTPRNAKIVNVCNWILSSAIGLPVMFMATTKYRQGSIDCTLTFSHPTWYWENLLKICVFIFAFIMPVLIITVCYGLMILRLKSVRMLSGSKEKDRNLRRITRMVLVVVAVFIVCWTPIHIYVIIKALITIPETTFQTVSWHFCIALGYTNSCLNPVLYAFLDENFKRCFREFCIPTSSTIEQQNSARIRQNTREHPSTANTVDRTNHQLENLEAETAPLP
PROPERTY LABEL: % of forskolin stimulated cyclic AMP response (%)
Hi! Could you send only the number? It should be in %, unit omitted.

[O-][n+]1onc(-c2ccc(F)cc2)c1-c1ccc(F)cc1; 63.5

Return % of forskolin stimulated cyclic AMP response measured with μ-opioid receptors (MOP receptors) (Mus musculus, UniProt P42866) given this molecule: `CC(=O)c1c(-c2ccccc2)no[n+]1[O-]`
128.2

Param readout= % of forskolin stimulated cyclic AMP response; system= μ-opioid receptors (MOP receptors) (Mus musculus, UniProt P42866); entry= `Cc1c(C(=O)O)no[n+]1[O-]` ; returns value.
138.7

State its % of forskolin stimulated cyclic AMP response on μ-opioid receptors (MOP receptors) (Mus musculus, UniProt P42866): `O=C(c1no[n+]([O-])c1-c1ccccc1)C(F)(F)F`
77.9

Item `O=C1CCc2c1no[n+]2[O-]` with μ-opioid receptors (MOP receptors) (Mus musculus, UniProt P42866) - % of forskolin stimulated cyclic AMP response?
105.2

Recorded % of forskolin stimulated cyclic AMP response for `[O-][n+]1onc(-c2ccccc2)c1-c1ccccc1` with μ-opioid receptors (MOP receptors) (Mus musculus, UniProt P42866), please?
120.4

Give the reported % of forskolin stimulated cyclic AMP response for `O=C(O)c1c(-c2ccc(F)cc2)no[n+]1[O-]` (system: μ-opioid receptors (MOP receptors) (Mus musculus, UniProt P42866)).
97.7

Param readout= % of forskolin stimulated cyclic AMP response; system= μ-opioid receptors (MOP receptors) (Mus musculus, UniProt P42866); entry= `CCc1c(C(=O)O)no[n+]1[O-]` ; returns value.
90.0

Lab request: please report % of forskolin stimulated cyclic AMP response under test system μ-opioid receptors (MOP receptors) (Mus musculus, UniProt P42866) for `Cc1c(-c2ccc(F)cc2)no[n+]1[O-]`
66.2
